TESTED TARGET: MaxL homodimer (Homo sapiens, UniProt P61244 1-160)
Sequence (P61244 whole entry): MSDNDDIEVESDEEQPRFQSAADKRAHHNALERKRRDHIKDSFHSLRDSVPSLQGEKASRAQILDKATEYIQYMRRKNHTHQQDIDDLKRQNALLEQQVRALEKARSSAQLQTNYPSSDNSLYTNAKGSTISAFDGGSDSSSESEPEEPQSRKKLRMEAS
METHOD NOTES: universal protein-binding microarray (PBM); PBS-based mixture, 10 nM His-tagged protein dimer, 2% milk, 200 ng/uL BSA, 50 ng/uL salmon testes DNA, 0.02% TX-100; detection with Alexa 488 anti-His antibody;; high values mean tight binding;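 also: fluorescence intensity normalized to that of the highest-ranked 8-mer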
PROTOCOL CONDITIONS: protein: recombinant; tags: C-terminal His-tag (pET21a); chain copies: 2; dsDNA, one strand shown
Whole data set: some 33,000 sequences, median “normalized occupancy” near 0.075, cut for the highest 2% near 0.095. The list comes from a sample in which the highest values are over-represented; it also holds close analogues and randomly drawn sequences.
Overview of reported binding signal across a group of sequences:
Return type: number; implicit unit normalized occupancy.

input_sequence=CATGCATC tested_target="MaxL homodimer (Homo sapiens, UniProt P61244 1-160)" readout_type="binding signal" unit_text="normalized occupancy" assay_result=0.0997
input_sequence=AATGCTTA tested_target="MaxL homodimer (Homo sapiens, UniProt P61244 1-160)" readout_type="binding signal" unit_text="normalized occupancy" assay_result=0.0806
input_sequence=CACTTTGA tested_target="MaxL homodimer (Homo sapiens, UniProt P61244 1-160)" readout_type="binding signal" unit_text="normalized occupancy" assay_result=0.0776
input_sequence=AGTGTCAT tested_target="MaxL homodimer (Homo sapiens, UniProt P61244 1-160)" readout_type="binding signal" unit_text="normalized occupancy" assay_result=0.0822
input_sequence=CGCGTGAG tested_target="MaxL homodimer (Homo sapiens, UniProt P61244 1-160)" readout_type="binding signal" unit_text="normalized occupancy" assay_result=0.109
input_sequence=CCCTGCGG tested_target="MaxL homodimer (Homo sapiens, UniProt P61244 1-160)" readout_type="binding signal" unit_text="normalized occupancy" assay_result=0.0745

Requested read-out: binding signal. Entry: CACGCTAG 0.0976
